Experiment: Oral bioavailability in Sprague-Dawley rat at 5 mg/kg measured up to 24 hrs by HPLC-MS/MS analysis
Assay type: ADME, organism-based
Details: in vivo
Positions of bridges follow the written chain, without caps; N, C: chain ends. Non-standard residues stand in square brackets, D forms with d. Residues, ends and D or L forms follow the SMILES beside them. NMeNle = CCCC[C@H](NC)C(=O)O; Nle = CCCC[C@H](N)C(=O)O
Attribute Measured: bioavailability

{"columns": ["Compound", "Attribute Measured", "Value Observed"],
 "data": [
  ["CCCC[C@@H]1NC(=O)[C@H](CCCC)NC(=O)[C@H]2CCCN2C(=O)[C@H](CCCC)NC(=O)[C@H](Cc2ccccc2)NC(=O)CSC[C@H](C(=O)NC)NC(=O)[C@H](CCCC)NC1=O", "bioavailability", "< 1%"],
  ["CCCC[C@@H]1NC(=O)C2CCCN2C(=O)[C@H](CCCC)NC(=O)[C@H](Cc2ccccc2)NC(=O)CSC[C@H](C(=O)NC)NC(=O)[C@H](CCCC)NC1=O (stereo partly drawn)", "bioavailability", "< 1%"]
]}

As a next step, examine the compound that follows.
Ask: Return value of bioavailability for input CCCC[C@@H]1NC(=O)[C@H](Cc2ccccc2)NC(=O)CSC[C@@H](C(=O)NC)NC(=O)[C@H](CCCC)N(C)C(=O)[C@H](CCCC)N(C)C(=O)[C@H](CCCC)N(C)C(=O)[C@H](CCCC)NC(=O)[C@H](CCCC)N(C)C1=O ({CH2CO}-F[Nle][NMeNle][Nle][NMeNle][NMeNle][NMeNle]C-NHMe; thioether N-8) , no commentary.
Reply: 17%

----------
Listing of recorded bioavailability by entry.
Test: Oral bioavailability in Sprague-Dawley rat at 5 mg/kg measured up to 24 hrs by HPLC-MS/MS analysis
Assay type: ADME, organism-based
Conditions: in vivo
Positions of bridges follow the written chain, without caps; N, C: chain ends. Non-standard residues stand in square brackets, D forms with d. Residues, ends and D or L forms follow the SMILES beside them. NMeF = CN[C@@H](Cc1ccccc1)C(=O)O; NMeNle = CCCC[C@H](NC)C(=O)O; Nle = CCCC[C@H](N)C(=O)O

Recorded results for 3 compounds are shown here.
{"columns": ["Compound", "bioavailability"],
 "data": [
  ["CCCC[C@@H]1NC(=O)[C@H](CCCC)NC(=O)[C@H](CCCC)N(C)C(=O)[C@@H]2CCCN2C(=O)[C@H](CCCC)N(C)C(=O)[C@H](Cc2ccccc2)NC(=O)CSC[C@@H](C(=O)NC)NC1=O ({CH2CO}-F[NMeNle]P[NMeNle][Nle][Nle]C-NHMe; thioether N-7)", "1%"],
  ["CCCC[C@@H]1NC(=O)[C@H](CCCC)N(C)C(=O)[C@H](CCCC)NC(=O)[C@H](Cc2ccccc2)N(C)C(=O)[C@H]([C@@H](C)O)NC(=O)[C@H](CCCC)N(C)C(=O)[C@@H](Cc2ccccc2)NC(=O)CSC[C@@H](C(=O)NC)NC1=O", "13%"],
  ["CCCC[C@@H]1NC(=O)[C@H](Cc2ccccc2)N(C)C(=O)[C@@H]2CCCN2C(=O)[C@H](CCCC)N(C)C(=O)[C@H](Cc2ccccc2)NC(=O)CSC[C@@H](C(=O)NC)NC(=O)[C@H](CCCC)N(C)C1=O ({CH2CO}-F[NMeNle]P[NMeF][Nle][NMeNle]C-NHMe; thioether N-7)", "84%"]
]}

As a next step, examine the compound that follows.
Ask: Return value of bioavailability for input CCCC[C@@H]1NC(=O)[C@H](Cc2ccccc2)N(C)C(=O)CSC[C@H](C(=O)NC)N(C)C(=O)[C@H](CCCC)NC(=O)[C@H](CCCC)N(C)C(=O)[C@H](CCCC)NC1=O , no commentary.
Reply: 20%
